src = PubChem BioAssay

- measuredOn: Nuclear receptor coactivator 2 (Homo sapiens) (UniProt Q15596)
- Sequence (Q15596 whole entry, looked up): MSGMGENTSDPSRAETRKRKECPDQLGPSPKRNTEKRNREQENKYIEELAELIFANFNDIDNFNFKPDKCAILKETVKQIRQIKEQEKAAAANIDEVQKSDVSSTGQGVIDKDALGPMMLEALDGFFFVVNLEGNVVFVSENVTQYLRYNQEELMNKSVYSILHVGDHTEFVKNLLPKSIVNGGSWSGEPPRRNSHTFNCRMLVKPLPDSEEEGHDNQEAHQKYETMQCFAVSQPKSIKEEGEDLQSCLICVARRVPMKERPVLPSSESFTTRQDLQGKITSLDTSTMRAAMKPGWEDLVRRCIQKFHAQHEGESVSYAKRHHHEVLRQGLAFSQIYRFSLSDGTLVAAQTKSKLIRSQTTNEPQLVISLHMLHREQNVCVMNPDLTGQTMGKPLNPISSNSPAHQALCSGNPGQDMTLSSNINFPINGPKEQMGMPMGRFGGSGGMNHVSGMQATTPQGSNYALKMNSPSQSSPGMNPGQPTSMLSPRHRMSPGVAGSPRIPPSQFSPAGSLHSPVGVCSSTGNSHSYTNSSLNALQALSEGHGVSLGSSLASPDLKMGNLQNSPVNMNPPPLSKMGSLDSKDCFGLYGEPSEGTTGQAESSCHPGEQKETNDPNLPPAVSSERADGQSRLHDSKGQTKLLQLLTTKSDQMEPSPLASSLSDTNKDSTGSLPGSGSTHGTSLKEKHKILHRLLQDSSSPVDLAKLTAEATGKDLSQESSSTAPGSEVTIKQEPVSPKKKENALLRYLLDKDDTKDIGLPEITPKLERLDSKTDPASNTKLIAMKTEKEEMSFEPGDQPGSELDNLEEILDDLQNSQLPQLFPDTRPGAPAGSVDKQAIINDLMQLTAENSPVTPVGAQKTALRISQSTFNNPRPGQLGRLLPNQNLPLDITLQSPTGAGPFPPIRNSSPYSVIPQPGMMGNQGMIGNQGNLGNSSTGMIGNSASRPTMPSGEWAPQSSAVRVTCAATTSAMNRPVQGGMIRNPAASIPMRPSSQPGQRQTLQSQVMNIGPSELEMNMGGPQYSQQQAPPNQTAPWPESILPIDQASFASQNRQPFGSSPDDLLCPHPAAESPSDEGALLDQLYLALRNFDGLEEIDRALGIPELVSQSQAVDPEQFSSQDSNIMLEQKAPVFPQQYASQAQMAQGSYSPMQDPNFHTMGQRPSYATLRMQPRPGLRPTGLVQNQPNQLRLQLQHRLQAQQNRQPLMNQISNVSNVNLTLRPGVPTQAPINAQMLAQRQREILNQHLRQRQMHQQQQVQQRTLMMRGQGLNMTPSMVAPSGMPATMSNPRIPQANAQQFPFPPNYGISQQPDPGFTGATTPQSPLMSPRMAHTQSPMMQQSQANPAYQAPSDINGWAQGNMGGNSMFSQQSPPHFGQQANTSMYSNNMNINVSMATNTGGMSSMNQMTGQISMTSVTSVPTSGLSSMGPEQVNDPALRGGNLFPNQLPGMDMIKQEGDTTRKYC
- runDescription: SRC2 coactivator transcriptional activity inhibitors, confirmation, cell-based, luminescence, HEK293, triplicate (AID 652008);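 note: 0% = DMSO-treated cells and 100% = Gossypol at 36 µM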
- statedConditions: HEK293 GAL4-SRC2 luciferase reporter, at 8.9 µM, stronger effect = higher value
The source made the active and inactive calls.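 Rule for the calls: active = mean inhibition above 46.5%, the solvent-only control mean plus 3 SD; inactive = the rest.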
compounds and their reported inhibition

O=C(CCCN1C(=O)/C(=C/c2ccccc2)SC1=S)NCCCn1ccnc1 :: 26.1% (inactive)
O=S(=O)(/C(=C/c1ccc(C(F)(F)F)cc1)c1nc2ccccc2[nH]1)c1ccccc1 :: 30.6% (inactive)

Recorded inhibition (compound `COc1cc(/C=C/C(=O)Nc2ccc(OC)c(S(=O)(=O)N3CCOCC3)c2)ccc1OC(F)F` ): 63.1% (active)

---

- measuredOn: Nuclear receptor coactivator 1 (Homo sapiens)
- runDescription: SRC1 coactivator transcriptional activity inhibitors, confirmation, cell-based, luminescence, quadruplicate (AID 588820);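 note: 0% = DMSO wells and 100% = gossypol 36 µM treated wells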
- statedConditions: HEK293 GAL4-SRC1 luciferase reporter, at 3.6 µM, stronger effect = higher value
endpoint: inhibition (%)
Numbers only here, please. The scale is %.

Note to self: inhibition of `c1nc2sc3c(c2c2nnnn12)CCCC3` with Nuclear receptor coactivator 1 (Homo sapiens) was 36.8

Note to self: inhibition of `CC(C)c1ccc(-c2csc(NC(=O)c3cccs3)c2C(=O)O)cc1` with Nuclear receptor coactivator 1 (Homo sapiens) was -2.31

Note to self: inhibition of `O=C(Nc1ccccc1N1CCOCC1)c1ccc(N2CCOCC2)c([N+](=O)[O-])c1` with Nuclear receptor coactivator 1 (Homo sapiens) was -19.5

---

compounds and their reported inhibition
- measuredOn: Nuclear receptor coactivator 1 (Homo sapiens) (UniProt Q15788)
- Sequence (Q15788 whole entry, looked up): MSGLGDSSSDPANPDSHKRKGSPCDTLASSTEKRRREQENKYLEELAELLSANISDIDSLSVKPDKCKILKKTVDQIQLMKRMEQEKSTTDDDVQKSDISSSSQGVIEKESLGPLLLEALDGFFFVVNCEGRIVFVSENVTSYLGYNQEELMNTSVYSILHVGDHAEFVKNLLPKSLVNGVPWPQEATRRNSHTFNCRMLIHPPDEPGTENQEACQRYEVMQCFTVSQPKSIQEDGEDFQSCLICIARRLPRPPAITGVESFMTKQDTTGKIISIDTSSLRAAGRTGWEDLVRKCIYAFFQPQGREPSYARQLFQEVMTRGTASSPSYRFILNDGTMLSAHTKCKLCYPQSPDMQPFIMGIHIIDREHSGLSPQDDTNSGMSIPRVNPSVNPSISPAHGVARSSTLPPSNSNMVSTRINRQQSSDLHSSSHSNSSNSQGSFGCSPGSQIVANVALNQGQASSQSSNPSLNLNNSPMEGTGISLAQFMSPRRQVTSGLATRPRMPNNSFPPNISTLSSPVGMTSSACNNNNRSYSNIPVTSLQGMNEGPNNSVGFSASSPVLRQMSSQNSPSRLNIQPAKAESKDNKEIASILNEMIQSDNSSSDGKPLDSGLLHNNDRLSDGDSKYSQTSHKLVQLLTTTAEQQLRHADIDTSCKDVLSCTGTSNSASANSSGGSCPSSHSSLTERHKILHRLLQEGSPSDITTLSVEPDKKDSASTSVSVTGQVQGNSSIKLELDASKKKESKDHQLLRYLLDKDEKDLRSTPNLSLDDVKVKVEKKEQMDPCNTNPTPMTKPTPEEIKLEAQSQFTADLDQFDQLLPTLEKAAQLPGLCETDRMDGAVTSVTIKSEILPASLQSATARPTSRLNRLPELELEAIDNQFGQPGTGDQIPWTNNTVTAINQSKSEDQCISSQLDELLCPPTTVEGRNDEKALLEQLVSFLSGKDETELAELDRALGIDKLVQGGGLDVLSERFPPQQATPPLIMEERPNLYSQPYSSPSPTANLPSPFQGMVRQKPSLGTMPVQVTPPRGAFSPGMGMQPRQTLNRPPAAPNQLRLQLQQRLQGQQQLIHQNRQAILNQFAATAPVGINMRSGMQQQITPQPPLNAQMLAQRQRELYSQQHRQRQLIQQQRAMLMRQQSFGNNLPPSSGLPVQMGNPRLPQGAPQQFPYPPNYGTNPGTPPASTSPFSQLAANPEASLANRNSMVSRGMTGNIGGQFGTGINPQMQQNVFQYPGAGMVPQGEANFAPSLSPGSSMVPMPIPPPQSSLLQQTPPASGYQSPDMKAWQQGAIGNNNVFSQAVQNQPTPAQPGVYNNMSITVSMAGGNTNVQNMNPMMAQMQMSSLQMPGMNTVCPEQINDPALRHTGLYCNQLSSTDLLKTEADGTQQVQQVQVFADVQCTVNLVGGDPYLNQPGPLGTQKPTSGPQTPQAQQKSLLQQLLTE
- runDescription: SRC1 coactivator transcriptional activity inhibitors, confirmation, cell-based, luminescence, quadruplicate (AID 588820);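 note: 0% = DMSO wells and 100% = gossypol 36 µM treated wells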
- statedConditions: HEK293 GAL4-SRC1 luciferase reporter, at 3.6 µM, stronger effect = higher value
Numbers only here, please. The scale is %.

The examples below pair each entry with its known result.
C[C@@H](C(=O)Nc1ccc2c(c1)OCCO2)n1c(=O)[nH]c2ccccc2c1=O :: -4.84
O=C(CN1C(=O)c2ccccc2S1(=O)=O)N1CCc2ccccc21 :: 40.8

Turning to the following compound.
Recorded inhibition (compound `CC1(C)CC(=O)c2sc(N)nc2C1` ): -9.15

---

- measuredOn: Nuclear receptor coactivator 1 (Homo sapiens) (UniProt Q15788)
- runDescription: SRC1 coactivator transcriptional activity inhibitors, confirmation, cell-based, luminescence, quadruplicate (AID 588820);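 note: 0% = DMSO wells and 100% = gossypol 36 µM treated wells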
- statedConditions: HEK293 GAL4-SRC1 luciferase reporter, at 3.6 µM
The source made the active and inactive calls.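 Rule for the calls: active = mean inhibition above 46.68%, the untreated control wells mean plus 3 SD; inactive = the rest.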
Field 'call' accepts active, inactive

Field: example entries. Status: answers known.
CN=C1S/C(=C\c2cc(C)n(-c3ccccc3F)c2C)C(=O)N1C :: inactive
S=C(c1ccc(-c2ccccc2)cc1)N1CCOCC1 :: inactive
Cc1ccc(-c2c[n+]3c(n2-c2ccccc2)CCC3)cc1 :: inactive

# lookup: test call for `O=C(c1ccccc1)c1c2c(cc3sc4ccccc4[n+]13)-c1cccc3cccc-2c13`
inactive

# lookup: test call for `NCC(=O)Nc1ccc(Cl)cc1C(=O)c1ccc[nH]1`
active

# lookup: test call for COc1cc(/C=C2\CC(C(C)(C)C)C/C(=C\c3cc(OC)c(OC)c(OC)c3)C2=O)cc(OC)c1OC (configuration not stated)
inactive

# lookup: test call for `CCc1ccc(NC(=O)c2ccc(F)c(S(=O)(=O)N(CC)c3ccccc3)c2)cc1`
inactive

# lookup: test call for `O=C1NC(=S)N/C1=C\c1cccnc1`
active

# lookup: test call for `S=C(NC1CCCCC1)N1CCOCCOCCN(C(=S)NC2CCCCC2)CCOCCOCC1`
inactive

# lookup: test call for `Cc1cccc[n+]1CC(=O)/C=C1\N(C)c2ccccc2C1(C)C`
inactive

# lookup: test call for `Cc1ccc(C(=O)O/N=C(\N)c2ccccc2)c(Cl)c1`
inactive
